pIC50: recorded values
# targetDesc: Putative farnesyl pyrophosphate synthase (Cryptosporidium parvum (strain Iowa II), UniProt Q5CR09)
# Sequence (Q5CR09 whole entry): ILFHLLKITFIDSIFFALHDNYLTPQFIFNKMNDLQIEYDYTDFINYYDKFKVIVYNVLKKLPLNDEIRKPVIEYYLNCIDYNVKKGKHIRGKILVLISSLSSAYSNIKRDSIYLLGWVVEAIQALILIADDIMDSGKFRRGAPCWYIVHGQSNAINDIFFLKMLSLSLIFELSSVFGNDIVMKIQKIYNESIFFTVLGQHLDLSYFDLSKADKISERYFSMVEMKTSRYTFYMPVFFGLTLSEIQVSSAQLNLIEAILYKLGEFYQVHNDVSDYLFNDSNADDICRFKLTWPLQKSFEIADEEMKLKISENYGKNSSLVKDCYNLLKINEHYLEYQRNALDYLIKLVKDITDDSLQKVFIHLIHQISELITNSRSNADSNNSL
# assay: Enzymatic Assay
# cond: pH 7.7; 37 °C
# Procedure: Enzymatic assay using CpNPPPS was assayed using Reed and Rilling method with some modification.
pIC50: −log10 of the molar value.
assayReadout: pIC50

compoundString | measuredNumber
O=P(O)(O)C(O)(Cc1cccnc1)P(=O)(O)O | 7.34
O=P(O)(O)C(O)(Cn1ccnc1)P(=O)(O)O | 7.52
